Tgt: T1, TNFR1 (Homo sapiens, UniProt P19438)
T1 chain: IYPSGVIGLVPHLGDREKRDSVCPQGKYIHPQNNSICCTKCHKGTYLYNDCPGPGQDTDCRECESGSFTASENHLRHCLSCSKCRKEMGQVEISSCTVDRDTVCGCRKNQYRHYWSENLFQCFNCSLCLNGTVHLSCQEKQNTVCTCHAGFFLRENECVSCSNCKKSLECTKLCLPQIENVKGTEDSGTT
Method summary: yeast display SC50
Test readout: apparent Kd (screen) (nM)
Express it in nM; write the number only.

Q: GET /values?readout=apparent Kd (screen)&item= E37W (designed binder) SMEEEVEKAAKEYEKKKKEAIEKHLEKLKAKDKEAAWRFLKELEEAAKEYAKDEAKTMSEEEAKRRAKKYKEKVLLSELSEEEQKEIKEAEEKLVRTILKYVEEAAK
Result: 0.49

Q: Queued: A10D (designed binder) SMEEEVEKADKEYEKKKKEAIEKHLEKLKAKDKEAAERFLKELEEAAKEYAKDEAKTMSEEEAKRRAKKYKEKVLLSELSEEEQKEIKEAEEKLVRTILKYVEEAAK
Result: 0.49

Numbers sourced from paper PMC12416549.
